# TEST_SUMMARY: Confirmatory qHTS for small molecule stabilizers of the endoplasmic reticulum resident proteome: Secreted ER Calcium Modulated Protein (SERCaMP) assay (AID 1508628); further: nearly all actives have a fitted effect of over 40% in size; further: potency means the concentration at half of the fitted maximal effect
# TEST_PARAMETERS: SERCaMP secreted luciferase ER calcium/proteostasis reporter; series mostly up to 76.3 µM
Inconclusive results are not listed. Activity calls are given as the source filed them. The call rests on the fitted dose curve; in most records, active means well fitted inhibition curve with a large enough effect; inconclusive means small, poorly fitted or top-dose-only effect; inactive means no such curve, though single readings can be large or run the other way.
ENDPOINT_LABEL: Potency

CN(C)c1ccc(O)c2c1C[C@H]1C[C@H]3[C@H](N(C)C)C(=O)C(C(N)=O)=C(O)[C@@]3(O)C(=O)C1=C2O :: inactive
O=C(O)c1cccc(-c2noc(-c3ccccc3F)n2)c1 :: inactive
Cc1cc(O)c2c(c1)C(=O)c1cc(O)cc(O)c1C2=O :: 14.1 µM (active)
CN1CCC(=C2c3ccccc3CCc3sccc32)CC1 :: 25.1 µM (active)
CCN(CC)C(=S)SSC(=S)N(CC)CC :: inactive
O=C(O)c1cc(=O)c2c(OCC(O)COc3cccc4oc(C(=O)O)cc(=O)c34)cccc2o1 :: inactive

====

# TEST_SUMMARY: Quantitative High-Throughput drug screen in 47 multiple myeloma cell lines against the NCATS MIPE library collection: KMS27_JCRB cell viability assay (AID 1918970); further: nearly all actives have a fitted effect of over 30% in size
# TEST_PARAMETERS: KMS27 myeloma cells, CellTiter-Glo ATP viability, 48 h; series mostly up to 45.8 µM
Records with an inconclusive call do not appear. Calls of active or inactive are those of the source. The call rests on the fitted dose curve; in most records, active means well fitted cell-killing curve with a large enough effect; inconclusive means small, poorly fitted or top-dose-only effect, or effect the other way; inactive means no such curve, though single readings can be large or run the other way.
Outcome codes: active, inactive

COc1ccc(C2(C#N)CCC(C(=O)O)CC2)cc1OC1CCCC1 (stereo unspecified) :: inactive
CC(C)Oc1ccc2c(=O)c(-c3ccccc3)coc2c1 :: inactive
Cc1cc(C2CCCCC2)n(O)c(=O)c1 :: active
Cc1nc(Nc2ncc(C(=O)Nc3c(C)cccc3Cl)s2)cc(N2CCN(CCO)CC2)n1 :: active
COC(=O)C1=C(C)NC(C)=C(C(=O)OCCCN2CCC(c3ccccc3)(c3ccccc3)CC2)C1c1cccc([N+](=O)[O-])c1 (stereo unspecified) :: inactive
COc1cc2c(cc1OC)C1CC(=O)C(CC(C)C)CN1CC2 (stereo unspecified) :: inactive
S=c1nc[nH]c2nc[nH]c12 :: active
Cc1nc2n(c(=O)c1CCN1CCC(c3noc4cc(F)ccc34)CC1)CCCC2 :: inactive
Cc1c(OCC(F)(F)F)ccnc1CS(=O)c1nc2ccccc2[nH]1 (stereo unspecified) :: inactive
O=P(O)(O)C(O)(Cn1ccnc1)P(=O)(O)O :: inactive
O=C1NC(=O)C(c2ccccc2[N+](=O)[O-])=C1Nc1ccc(O)c(Cl)c1 :: inactive

====

# TEST_SUMMARY: qHTS of pediatric cancer cell lines to identify multiple opportunities for drug repurposing: Primary screen for NB-EBc1 cells (AID 1347095)
# TEST_PARAMETERS: NB-EBc1 neuroblastoma viability, CellTiter-Glo luminescence, 48 h; series mostly up to 46 µM
# Procedure: Drug repurposing or repositioning has been offered as a strategy for drug development in oncology programs. This approach has special potential for childhood cancers and other rare or orphan diseases, where the expected return on new drug development has been a disincentive to pharmaceuticals. […] We employed a titration-based paradigm (quantitative high-throughput screening or qHTS), where all compounds were tested at multiple concentrations for their effect on cell viability. […]
Records with an inconclusive call do not appear. Active and inactive are the calls of the source. Calls come from the whole dose curve; as a rule, active = well fitted cell-killing curve with a large enough effect; inconclusive = small, poorly fitted or top-dose-only effect; inactive = no such curve, though single readings can be large or run the other way.
Possible outcomes: active, inactive

CC(C)C[C@H](NC(=O)[C@H](Cc1ccccc1)NC(=O)c1cnccn1)B(O)O :: active
O=c1oc2cc(O)ccc2s1 :: inactive
Cc1cc(Cl)ccc1OCCCC(=O)NO :: active
Cc1cccc(CN2CCN(C(c3ccccc3)c3ccc(Cl)cc3)CC2)c1 (stereo unspecified) :: active
CC(C)c1nc(CN(C)C(=O)N[C@H](C(=O)N[C@@H](Cc2ccccc2)C[C@H](O)[C@H](Cc2ccccc2)NC(=O)OCc2cncs2)C(C)C)cs1 :: active
Cc1ccc(C)c(OCCCC(C)(C)C(=O)O)c1 :: inactive
